test system: HBV; experiment: In-vitro anti-HBV activity in stable HBV-producing cell line (HepG2.2.15), HBV DNA in culture fluid by qPCR; assay type: cell-based; conditions: Hepatitis B virus, 168 h; 500 nmol final concentration, HepG2.2.15 cells, HBV DNA in culture media on day 7 post seeding, vs DMSO control; read-out: HBV (% Inh.) (500 nmol)
Reported inhibition at 0.5 µM values for the following compounds.
The answer is to be given in %; state only the numeric part.

CCOC(=O)C1=C(CN2CCOC[C@H]2C(=O)NCCOC(C)=O)NC(c2nccs2)=NC1c1ccc(F)cc1Br (stereo partly drawn) = 93
CCOC(=O)C1=C(CN2CCOC(CCCO)C2)NC(c2nccs2)=NC1c1ccc(F)cc1Br (stereo not drawn) = 92.6

Incoming: Request the reported inhibition at 0.5 µM associated with COC(=O)C1=C(CN2CCOC(C(=O)O)C2)NC(c2nccs2)=NC1c1ccc(F)cc1Br (stereo not drawn)
Outgoing: 53.8
